- System: Saccharomyces cerevisiae
- TEST_DETAILS: Zone of inhibition for Saccharomyces cerevisiae IFO 0203 at 0.25 ug/disc by conventional paper disk method
- Type: functional
The molecules listed here are annotated with their zone of inhibition at 0.25 µg/disc.
VALUE_KIND: zone of inhibition at 0.25 µg/disc (mm)

- COc1ccnc(C(=O)N[C@H]2COC(=O)[C@H](Cc3ccccc3)[C@@H](OC(=O)C(C)C)[C@H](C)OC2=O)c1OC(=O)CCCCCC(=O)O: 24
- COc1ccnc(C(=O)N[C@H]2COC(=O)[C@H](Cc3ccc([N+](=O)[O-])cc3)[C@@H](OC(=O)C(C)C)[C@H](C)OC2=O)c1O: 20
- CC(C)C(=O)O[C@H]1[C@H](C)OC(=O)[C@@H](NC(=O)c2ccccc2O)COC(=O)[C@@H]1Cc1ccccc1: 12
- COc1ccnc(C(=O)N[C@H]2COC(=O)[C@H](Cc3ccccc3)[C@@H](OC(=O)C(C)C)[C@H](C)OC2=O)c1O: 26

Hello, the source for this data is ChEMBL document CHEMBL1143523, in case you need it.
